All values here come from the supplement of paper PMC10065799.

Below is a list of entries, each paired with its recorded phosphorylation enrichment value.
target: Hck (UniProt P08631); assay: phosphorylation enrichment, bacterial display (enrichment ratio); higher = better substrate or ligand; peptides without Tyr show the background;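 further: 11-residue human phosphosite peptides and single-mutation variants displayed on the E. coli surface, counted by deep sequencing, each peptide's frequency after selection divided by its frequency in the unselected input library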;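 further: frequency after pTyr selection over input frequency; kinase dosed for 20-30% of maximal phosphorylation in three min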
Sequence (P08631 whole entry, looked up): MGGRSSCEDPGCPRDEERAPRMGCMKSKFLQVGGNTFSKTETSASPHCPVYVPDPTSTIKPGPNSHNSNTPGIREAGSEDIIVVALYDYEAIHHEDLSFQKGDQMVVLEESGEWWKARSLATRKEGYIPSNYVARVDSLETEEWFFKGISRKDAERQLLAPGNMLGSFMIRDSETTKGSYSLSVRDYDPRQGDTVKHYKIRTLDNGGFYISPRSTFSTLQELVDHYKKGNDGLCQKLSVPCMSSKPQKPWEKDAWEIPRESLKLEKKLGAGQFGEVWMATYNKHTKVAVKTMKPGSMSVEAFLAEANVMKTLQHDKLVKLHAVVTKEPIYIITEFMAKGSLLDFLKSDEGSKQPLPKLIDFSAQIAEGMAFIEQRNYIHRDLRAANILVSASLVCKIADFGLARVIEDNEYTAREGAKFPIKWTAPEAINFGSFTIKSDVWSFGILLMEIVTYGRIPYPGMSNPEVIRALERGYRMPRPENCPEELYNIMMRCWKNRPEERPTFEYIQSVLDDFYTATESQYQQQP
result_type: phosphorylation enrichment

                 biopolymer_sequence  measured_value
 0     SVVVPYKPPEV [TP53_Y220_E221K]           0.421
 1  NLNGKYYKPRA [ANGPTL3_Y417_N418Y]           0.312
 2           KVNKIYYPDFI [LIG3_Y767]           0.668
 3             ALVLQYLRVPL [F9_Y371]           0.536
 4  DLRTGYSVPFG [TGM1_Y370_Y365D_YF]           0.418
 5    APRKVYDTQDD [ZFPL1_Y215_R218Q]           0.586
 6     AEARMYGVLPW [PLP1_Y207_D203E]            7.47
 7     AKKKMYSCKTK [AGXT_Y231_R233C]           0.537
 8          WISNRYLDFSS [PRPH2_Y184]           0.577
 9    TLNTNYHLPPS [MT-ATP8_Y33_M28T]           0.343
10         HSGIYYKPESL [L2HGDH_Y103]            6.44
11        VQNIVYRTASI [CYP39A1_Y102]            0.36
12   RLRKFHLGKFL [KLB_Y906_Y906H_YF]            0.63
13  ATFRGYDSDNP [MMUT_Y146_H143Y_YF]           0.528
14           ASENVYVNIAH [CTSC_Y150]            1.94
15          SGFESYGSSSF [RPA2_Y9_YF]           0.481
16   SSVKLYRVFCD [FGB_Y266_P265L_YF]           0.514
17       TRSYDYMEGED [FGF7_Y58_G62E]           0.549
18          YETDYYRKGGK [INSR_Y1190]           0.469
19   CEDGNYSPEIS [PTDSS1_Y424_T423N]           0.668
20          HLEKKYVRRDS [CSF1R_Y708]            1.23
21          LMLVLYGRIFR [HTR1A_Y215]           0.495
22          ITKQEYDEAGP [ACTA1_Y364]            0.51
23    ERNAHYRTPKI [PTK2B_Y699_R698H]           0.332
24   LRNIDYHRLDG [ATRX_Y2083_Y2084H]            0.33
25          DIRAQYDELAR [KRT18_Y256]           0.761
26       FSDPSYVKQME [CDC5L_Y464_YF]           0.505
27     WRGMPYGGRGD [TGM1_Y312_R307W]            0.39
28   EPTPSYEVGQR [TSC2_Y1788_G1787S]           0.486
